Values were extracted from the supplement of paper PMC7380943.

Tested on: CLZ3 (HCA2 human fibroblast dual HR-NHEJ reporter);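 note: compound given one day ahead of doxycycline, which switches on I-SceI endonuclease to cut the chromosomally integrated reporter and create DSBs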
Assay: NHEJ repair efficiency (GFP+ cells) relative to control (log10 fold); higher = more non-homologous end joining
Details: 5 µM; doxycycline 0.5 ug/mL
Structures can show the parent of a compound that is named as a salt.
I'd appreciate it if you could supply NHEJ repair efficiency (log10) values for the items below.
// keep it numeric: no unit symbol after the value

Q: Lab note: need NHEJ repair efficiency (log10) with CLZ3 (HCA2 human fibroblast dual HR-NHEJ reporter) for entry CC(C)=CCOc1c2occc2cc2ccc(=O)oc12 , please look it up.
Result: 0.0993

Q: How about this molecule: CC1=C2C[C@H]3[C@@H](CC(=O)[C@H]4C[C@@H](O)CC[C@@]43C)[C@@H]2CC[C@]12O[C@@H]1C[C@H](C)CN[C@H]1[C@H]2C
Result: -0.0359

Q: How about this molecule: CN[C@@H](C)[C@H](O)c1ccccc1 [Ephedrine hydrochloride]
Result: 0.0488

Q: How about this molecule: O=c1ccc2ccc3occc3c2o1
Result: -0.0427

Q: How about this molecule: COC[C@]12CN(C)C3[C@@H]4[C@H](OC)[C@H]1[C@@]3([C@@H](OC)C[C@H]2O)[C@@H]1C[C@@]2(O)[C@H](OC(=O)c3ccccc3)[C@@H]1[C@]4(O)[C@@H](O)[C@@H]2OC
Result: -0.0412

Q: How about this molecule: CCC(C)C(=O)O[C@@H]1[C@@H](OC(C)=O)[C@]2(C)[C@H](C(C)=O)CC[C@@]23O[C@]32CC[C@H]3C[C@@H](O[C@H]4C[C@@H](OC)[C@H](O[C@@H]5O[C@H](C)[C@@H](O)[C@@H](OC)[C@H]5O)[C@@H](C)O4)CC[C@]3(C)[C@@H]12 (some centres not stated) [Tenacissoside H]
Result: -0.0163

Q: How about this molecule: COC(=O)C1=CCCN(C)C1
Result: 0.0763
